target: hPepT1 (SLC15A1) (Homo sapiens); construct: host or cells: CHO-K1 (clones CHO-hPepT1-M5 and CHO-hPepT1-200); assay: Inhibition of Gly-Sar uptake in hPepT1 overexpressing CHO-K1 clones (semi-high-throughput 96-well assay); assay type: cell-based; details: CHO-hPepT1-M5 cells, 20 µM Gly-Sar, inhibitor 0.1-5000 µM, MES buffer pH 6.0, 10 min, 37 °C, UPLC-MS/MS; mean ± S.E.M. of three independent experiments, each concentration in sextuplets; read-out: IC50 for inhibition of the Gly-Sar uptake
Sequence (P46059 whole entry): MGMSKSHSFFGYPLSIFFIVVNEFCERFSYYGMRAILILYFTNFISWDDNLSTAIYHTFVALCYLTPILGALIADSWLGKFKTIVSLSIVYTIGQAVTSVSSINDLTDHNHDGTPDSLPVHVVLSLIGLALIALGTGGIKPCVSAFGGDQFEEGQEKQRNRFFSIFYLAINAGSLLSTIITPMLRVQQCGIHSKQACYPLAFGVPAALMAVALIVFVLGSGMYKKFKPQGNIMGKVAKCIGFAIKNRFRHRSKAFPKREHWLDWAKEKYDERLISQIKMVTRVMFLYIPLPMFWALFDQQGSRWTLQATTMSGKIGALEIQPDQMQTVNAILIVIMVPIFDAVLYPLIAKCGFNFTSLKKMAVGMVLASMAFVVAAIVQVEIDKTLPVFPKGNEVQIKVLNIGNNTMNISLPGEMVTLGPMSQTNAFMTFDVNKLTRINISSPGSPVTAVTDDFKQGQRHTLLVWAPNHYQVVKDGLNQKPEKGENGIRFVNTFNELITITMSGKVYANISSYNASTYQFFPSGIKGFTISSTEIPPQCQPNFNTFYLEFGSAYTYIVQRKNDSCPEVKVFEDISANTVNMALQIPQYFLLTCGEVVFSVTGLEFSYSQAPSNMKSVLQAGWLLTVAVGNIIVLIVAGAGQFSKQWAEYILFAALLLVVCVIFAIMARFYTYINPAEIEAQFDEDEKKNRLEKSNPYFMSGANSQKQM
pIC50: −log10 of the molar value. Peptide text beside a SMILES is read from it.
Measured Parameter: pIC50

[A] NCC(=O)N1CCC[C@H]1C(=O)O [Gly-Pro] (H-Gly-Pro-OH)
[B] CCCCc1nc(Cl)c(CO)n1Cc1ccc(-c2ccccc2-c2nn[nH]n2)cc1 [losartan]
Just curious, which one has the larger pIC50 reading, A or B ? Write down the label of the entry you select.
B
